# target-entity: T1, human LAG-3 protein with hFc tag (hLAG-3-hFc protein) (human, UniProt P18627 23-450)
# T1 construct: also called immunogen 1; LAG-3 extracellular domain protein; not shown: human IgG Fc fragment (hFc) of the pCpC vector
# T1 sequence: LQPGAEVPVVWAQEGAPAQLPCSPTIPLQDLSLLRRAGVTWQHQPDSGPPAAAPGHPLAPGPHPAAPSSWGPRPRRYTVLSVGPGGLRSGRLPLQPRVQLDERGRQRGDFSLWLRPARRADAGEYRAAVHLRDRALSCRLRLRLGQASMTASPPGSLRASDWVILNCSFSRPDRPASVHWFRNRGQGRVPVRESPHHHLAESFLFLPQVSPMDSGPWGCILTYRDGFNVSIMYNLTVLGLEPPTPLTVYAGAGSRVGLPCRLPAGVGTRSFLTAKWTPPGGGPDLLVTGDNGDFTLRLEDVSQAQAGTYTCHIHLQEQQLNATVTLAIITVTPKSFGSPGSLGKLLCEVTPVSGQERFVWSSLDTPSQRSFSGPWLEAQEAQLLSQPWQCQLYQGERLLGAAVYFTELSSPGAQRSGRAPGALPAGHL
# test: FACS, blocks LAG-3-hFc binding to MHC II on Raji; 0.274 nM
Provide the reported Inhibition rate (%) of each item.
Answer in %, number only, no unit symbol.

Value of Inhibition rate (%) reported for the binder 556F6B8 (mouse antibody purified from hybridoma) (antibody, V domains shown, also called mAb123-556F6B8) VH: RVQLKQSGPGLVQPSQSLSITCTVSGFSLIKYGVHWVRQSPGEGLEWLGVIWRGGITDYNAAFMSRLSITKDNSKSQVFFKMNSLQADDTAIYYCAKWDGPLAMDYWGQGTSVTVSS VL: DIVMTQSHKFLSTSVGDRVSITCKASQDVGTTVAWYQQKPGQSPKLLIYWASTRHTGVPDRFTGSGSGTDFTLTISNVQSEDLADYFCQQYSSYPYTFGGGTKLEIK is 6

Lab note: 409B11E12 (mouse antibody purified from hybridoma) (antibody, V domains shown, also called mAb104-409B11E12) VH: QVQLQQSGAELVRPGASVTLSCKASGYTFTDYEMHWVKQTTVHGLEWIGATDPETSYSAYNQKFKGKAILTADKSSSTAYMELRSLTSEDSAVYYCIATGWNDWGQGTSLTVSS VL: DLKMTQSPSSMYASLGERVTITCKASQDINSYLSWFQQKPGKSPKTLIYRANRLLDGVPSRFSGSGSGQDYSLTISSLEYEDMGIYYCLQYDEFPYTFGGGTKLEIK gave Inhibition rate (%) of -3.9

Lookup result for 405B8H3 (mouse antibody purified from hybridoma) (antibody, V domains shown, also called mAb103-405B8H3; 405B81-13) VH: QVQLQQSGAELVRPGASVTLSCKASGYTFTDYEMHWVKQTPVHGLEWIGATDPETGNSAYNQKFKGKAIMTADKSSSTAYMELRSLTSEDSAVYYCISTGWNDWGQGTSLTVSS VL: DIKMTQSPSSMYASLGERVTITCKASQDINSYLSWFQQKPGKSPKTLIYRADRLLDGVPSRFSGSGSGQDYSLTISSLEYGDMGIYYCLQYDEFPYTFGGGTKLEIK ; measured Inhibition rate (%): 2.1
